tested on: NAMALWA; experiment: cells; design: species or system panel of human cancer cell lines; Eurofins OncoPanel proliferation; nuclei count by high-content fluorescence imaging, 10-point dose response; details: 72 h; cell count, curve inflection point, 3 days
Outcome Measure: EC50 (µM)

{"columns": ["Structure String", "Outcome Measure", "Quantitative Result"],
 "data": [
  ["C[C@@H]1CC(=O)NN=C1c1ccc(NN=C(C#N)C#N)cc1", "EC50", 12.5]
]}

----------
system: Hs 888.Sk; assay: cells; parameters: species or system panel of human cancer cell lines; Eurofins OncoPanel proliferation; nuclei count by high-content fluorescence imaging, 10-point dose response; details: 72 h; cell count, curve inflection point, 3 days
pEC50: −log10 of the molar value.

{"columns": ["Compound", "pEC50"],
 "data": [
  ["C[C@@H]1CC(=O)NN=C1c1ccc(NN=C(C#N)C#N)cc1 [levosimendan]", "< 4.00"]
]}
